Test system Human HDAC8 (Homo sapiens (Human)), pIC50 listed for each of the compounds.
pIC50: −log10 of the molar value.

# example entries with known answers
Input line: Data request, read-out pIC50, for Fc1ccc(OCc2ccc(-c3nnc(C(F)F)o3)cn2)c(F)c1
Output line: < 4.00

Input line: // query: FC(F)c1nnc(-c2ccc(COc3ccc4nccnc4c3)nc2)o1
Output line: < 4.00

Continuing:
Input line: Data request, read-out pIC50, for N#Cc1cccc(F)c1OCc1ccc(-c2nnc(C(F)F)o2)cn1
Output line: < 4.00

* * *

# system: Human HDAC8 (Homo sapiens (Human), UniProt Q9BY41)
# Sequence (Q9BY41 whole entry): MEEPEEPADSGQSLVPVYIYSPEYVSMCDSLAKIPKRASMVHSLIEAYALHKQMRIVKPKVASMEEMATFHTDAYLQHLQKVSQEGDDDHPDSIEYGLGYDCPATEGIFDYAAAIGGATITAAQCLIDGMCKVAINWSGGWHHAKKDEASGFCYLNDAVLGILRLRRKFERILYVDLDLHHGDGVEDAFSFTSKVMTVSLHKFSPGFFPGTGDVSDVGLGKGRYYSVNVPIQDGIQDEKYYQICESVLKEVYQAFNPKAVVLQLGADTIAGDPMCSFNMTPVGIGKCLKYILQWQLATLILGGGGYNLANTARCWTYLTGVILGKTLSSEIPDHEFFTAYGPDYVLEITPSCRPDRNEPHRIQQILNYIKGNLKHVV
pIC50: −log10 of the molar value.
Below, each entry is listed with its recorded pIC50.

# example entries with known answers
Input line: Data request, read-out pIC50, for Cc1ccc(OCc2ccc(-c3nnc(C(F)F)o3)cn2)cn1
Output line: < 4.00

Input line: // query: FC(F)c1nnc(-c2ccc(COc3ccc(C4CC4)nn3)nc2)o1
Output line: 4.00 to 5.00

Input line: // query: Cc1nc(Cl)cc(OCc2ccc(-c3nnc(C(F)F)o3)cn2)n1
Output line: 5.00 to 6.00

Input line: // query: FC(F)c1nnc(-c2ccc(COc3cccnc3)nc2)o1
Output line: 4.00 to 5.00

Input line: // query: FC(F)c1nnc(-c2ccc(COc3cccc4ocnc34)nc2)o1
Output line: < 4.00

Continuing:
Input line: Data request, read-out pIC50, for C#Cc1cccc(OCc2ccc(-c3nnc(C(F)F)o3)cn2)c1
Output line: < 4.00

Input line: // query: Fc1ccc(OC(F)(F)c2ccc(-c3nnc(C(F)F)o3)cn2)cc1
Output line: < 4.00

Input line: // query: Cn1cnc2cc(OCc3ccc(-c4nnc(C(F)F)o4)cn3)ccc21
Output line: 4.00 to 5.00

Input line: // query: FC(F)c1nnc(-c2ccc(COc3ccncc3)nc2)o1
Output line: < 4.00

Input line: // query: FC(F)c1nnc(-c2ccc(COc3ccnc(N4CCOCC4)n3)nc2)o1
Output line: < 4.00

* * *

pIC50: −log10 of the molar value.
Test system Human HDAC6 (Homo sapiens (Human)), pIC50 listed for each of the molecules.

# example entries with known answers
Input line: Data request, read-out pIC50, for Cn1ncc2cc(OCc3ccc(-c4nnc(C(F)F)o4)cn3)ccc21
Output line: 7.00 to 9.00

Input line: // query: FC(F)c1nnc(-c2ccc(COc3ncccn3)nc2)o1
Output line: 6.00 to 7.00

Input line: // query: Cn1cc(OCc2ccc(-c3nnc(C(F)F)o3)cn2)cn1
Output line: 6.00 to 7.00

Continuing:
Input line: Data request, read-out pIC50, for NC(=O)c1ccc(OCc2ccc(-c3nnc(C(F)F)o3)cn2)cc1
Output line: < 4.00

Input line: // query: FC(F)c1nnc(-c2cnc(COc3ccc4ncccc4c3)nc2)o1
Output line: 7.00 to 9.00

Input line: // query: FC(F)c1nnc(-c2ccc(COc3cccc(-c4ccccc4)c3)nc2)o1
Output line: 6.00 to 7.00

Input line: // query: CCn1ccc(OCc2ccc(-c3nnc(C(F)F)o3)cn2)n1
Output line: 6.00 to 7.00

Input line: // query: Cn1ncc2c(OCc3ccc(-c4nnc(C(F)F)o4)cn3)cccc21
Output line: 7.00 to 9.00

Input line: // query: Fc1cc(-c2nnc(C(F)F)o2)cnc1COc1ccc2ccccc2c1
Output line: 7.00 to 9.00

* * *

pIC50: −log10 of the molar value.
Test system Human HDAC6 (Homo sapiens (Human), UniProt Q9UBN7), pIC50 listed for each of the molecules.

Input line: Data request, read-out pIC50, for Fc1ccc(OCc2ncc(-c3nnc(C(F)F)o3)cc2F)cc1F
Output line: 7.00 to 9.00

Input line: // query: FC(F)c1nnc(-c2ccc(COc3ccc(-c4ccccc4)cc3)nc2)o1
Output line: 7.00 to 9.00

Input line: // query: Fc1cnc(OCc2ccc(-c3nnc(C(F)F)o3)cn2)nc1
Output line: 6.00 to 7.00

Input line: // query: Cn1ccc(OCc2ccc(-c3nnc(C(F)F)o3)cn2)n1
Output line: 7.00 to 9.00

Input line: // query: Cc1cccc2c(OCc3ccc(-c4nnc(C(F)F)o4)cn3)ncnc12
Output line: 7.00 to 9.00

Input line: // query: FC(F)c1nnc(-c2ccc(COc3ccccn3)nc2)o1
Output line: 7.00 to 9.00

Continuing:
Input line: Data request, read-out pIC50, for N#Cc1cc(OCc2ccc(-c3nnc(C(F)F)o3)cn2)ccc1F
Output line: 7.00 to 9.00

Input line: // query: FC(F)c1nnc(-c2ccc(COCC3CC4CCC(C3)N4)nc2)o1 (stereo not shown)
Output line: 6.00 to 7.00

Input line: // query: N#Cc1c(F)cccc1OCc1ccc(-c2nnc(C(F)F)o2)cn1
Output line: 7.00 to 9.00

Input line: // query: FC(F)c1nnc(-c2ccc(CO[C@@H]3C[C@H]4CC[C@@H](C3)O4)nc2)o1
Output line: 6.00 to 7.00

Input line: // query: FC(F)c1nnc(-c2ccc(COC3CC4CCC(C3)O4)nc2)o1 (stereo not shown)
Output line: 6.00 to 7.00

Input line: // query: Cc1noc2cc(OCc3ccc(-c4nnc(C(F)F)o4)cn3)ccc12
Output line: 7.00 to 9.00

Input line: // query: Fc1cc(-c2nnc(C(F)F)o2)cnc1COc1cccc2cnccc12
Output line: 7.00 to 9.00

* * *

Below, each entry is listed with its recorded pIC50.
# system: Human HDAC8 (Homo sapiens (Human))
pIC50: −log10 of the molar value.

# example entries with known answers
Input line: Data request, read-out pIC50, for Fc1cc(Cl)ccc1OCc1ccc(-c2nnc(C(F)F)o2)cn1
Output line: < 4.00

Input line: // query: N#CCc1cccc(OCc2ccc(-c3nnc(C(F)F)o3)cn2)c1
Output line: < 4.00

Input line: // query: N#Cc1cc(F)ccc1OCc1ccc(-c2nnc(C(F)F)o2)cn1
Output line: < 4.00

Input line: // query: Cc1noc2cc(OCc3ccc(-c4nnc(C(F)F)o4)cn3)ccc12
Output line: < 4.00

Query molecule follows.
Input line: Data request, read-out pIC50, for Cc1ccnc(OCc2ccc(-c3nnc(C(F)F)o3)cn2)c1
Output line: < 4.00

* * *

# system: Human HDAC6 (Homo sapiens (Human), UniProt Q9UBN7)
# Sequence (Q9UBN7 whole entry): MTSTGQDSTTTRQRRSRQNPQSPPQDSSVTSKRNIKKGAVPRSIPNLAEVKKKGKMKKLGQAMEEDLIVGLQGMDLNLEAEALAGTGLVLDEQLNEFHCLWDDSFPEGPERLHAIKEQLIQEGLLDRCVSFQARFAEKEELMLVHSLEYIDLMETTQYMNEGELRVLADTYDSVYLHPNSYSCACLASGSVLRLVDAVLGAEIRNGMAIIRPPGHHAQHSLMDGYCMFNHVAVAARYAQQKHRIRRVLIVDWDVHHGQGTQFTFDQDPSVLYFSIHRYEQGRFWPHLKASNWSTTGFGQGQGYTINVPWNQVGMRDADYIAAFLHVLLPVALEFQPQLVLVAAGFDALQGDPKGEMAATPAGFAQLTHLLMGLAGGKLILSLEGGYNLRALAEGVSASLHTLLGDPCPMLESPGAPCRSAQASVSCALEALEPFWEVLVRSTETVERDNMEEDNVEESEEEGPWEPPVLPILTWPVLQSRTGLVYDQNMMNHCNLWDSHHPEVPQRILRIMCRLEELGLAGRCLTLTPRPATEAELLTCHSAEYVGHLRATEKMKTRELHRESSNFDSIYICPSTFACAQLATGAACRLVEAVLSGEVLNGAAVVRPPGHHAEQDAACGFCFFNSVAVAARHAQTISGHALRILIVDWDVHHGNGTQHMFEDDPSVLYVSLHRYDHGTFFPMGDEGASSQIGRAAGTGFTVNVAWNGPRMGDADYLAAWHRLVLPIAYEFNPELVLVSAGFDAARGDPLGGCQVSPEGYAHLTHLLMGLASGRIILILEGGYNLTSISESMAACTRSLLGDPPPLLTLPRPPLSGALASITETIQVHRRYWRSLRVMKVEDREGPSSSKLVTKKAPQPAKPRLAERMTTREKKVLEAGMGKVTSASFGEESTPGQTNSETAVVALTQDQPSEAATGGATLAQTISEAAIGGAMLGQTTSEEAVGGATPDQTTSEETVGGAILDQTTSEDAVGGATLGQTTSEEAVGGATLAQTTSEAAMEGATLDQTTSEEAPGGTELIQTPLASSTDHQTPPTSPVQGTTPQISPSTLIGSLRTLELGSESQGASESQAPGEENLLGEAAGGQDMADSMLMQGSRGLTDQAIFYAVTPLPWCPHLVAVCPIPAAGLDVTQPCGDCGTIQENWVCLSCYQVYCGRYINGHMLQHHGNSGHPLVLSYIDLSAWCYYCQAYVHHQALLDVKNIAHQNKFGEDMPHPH
# assay_notes: HDAC6 enzymatic activity assay (Caliper endpoint or fluorogenic format)
# Assay type: biochemical
# study_conditions: ratio of HDAC8 IC50/HDAC6 IC50
measured_attribute: Selectivity (6 v 8) (fold)

# example entries with known answers
Input line: Data request, read-out Selectivity (6 v 8) (fold), for N#CCc1cccc(OCc2ccc(-c3nnc(C(F)F)o3)cn2)c1
Output line: V (V: >1000)

Input line: // query: FC(F)c1nnc(-c2ccc(COc3cncc(C(F)(F)F)c3)nc2)o1
Output line: V (V: >1000)

Input line: // query: FC(F)c1nnc(-c2ccc(COc3cccc4ccccc34)nc2)o1
Output line: V (V: >1000)

Input line: // query: CCn1cnc2cc(OCc3ccc(-c4nnc(C(F)F)o4)cn3)ccc21
Output line: IV (IV: >100-1000)

Input line: // query: CN1CCc2c(OCc3ccc(-c4nnc(C(F)F)o4)cn3)noc2C1
Output line: IV (IV: >100-1000)

Query compound follows.
Input line: Data request, read-out Selectivity (6 v 8) (fold), for FC(F)c1nnc(-c2ccc(COc3ccc(Cl)cc3)nc2)o1
Output line: V (V: >1000)

* * *

pIC50: −log10 of the molar value.
Test system Human HDAC6 (Homo sapiens (Human), UniProt Q9UBN7), pIC50 listed for each of the molecules.

# example entries with known answers
Input line: Data request, read-out pIC50, for FC(F)c1nnc(-c2ccc(COc3ccnc(N4CCOCC4)n3)nc2)o1
Output line: 6.00 to 7.00

Input line: // query: FC(F)c1nnc(-c2ccc(COc3ccnc(Cl)c3)nc2)o1
Output line: 7.00 to 9.00

Input line: // query: FC(F)c1nnc(-c2cnc(COc3ccc4cnccc4c3)nc2)o1
Output line: 7.00 to 9.00

Input line: // query: FC(F)c1nnc(-c2ccc(COc3ccn4cnnc4c3)nc2)o1
Output line: 6.00 to 7.00

Input line: // query: FC(F)c1nnc(-c2ccc(COc3ccon3)nc2)o1
Output line: 6.00 to 7.00

Input line: // query: Fc1ccc(OC(F)(F)c2ccc(-c3nnc(C(F)F)o3)cn2)cc1
Output line: 6.00 to 7.00

Input line: // query: Fc1ccc(OCc2ncc(-c3nnc(C(F)F)o3)cn2)cc1F
Output line: 7.00 to 9.00

Input line: // query: CN1[C@@H]2CC[C@H]1C[C@H](OCc1ccc(-c3nnc(C(F)F)o3)cn1)C2
Output line: 5.00 to 6.00

Continuing:
Input line: Data request, read-out pIC50, for FC(F)c1nnc(-c2cnc(COc3ccc4ocnc4c3)nc2)o1
Output line: 7.00 to 9.00

Input line: // query: FC(F)c1nnc(-c2ccc(COc3ccc4ncccc4c3)nc2)o1
Output line: 7.00 to 9.00

Input line: // query: Fc1cc(-c2nnc(C(F)F)o2)cnc1COc1ccc2ncccc2c1
Output line: 7.00 to 9.00
